Each recorded value in this set is attributed to patent US20230234943A1.

Record set of IC50 for target or system Human TREX1 enzyme (amino acids 1-242) (Homo sapiens, UniProt Q9NSU2).

For each of the molecules below, note its IC50.
1. COc1cc(-c2nc3ccc(C(=O)NC4CC4)cc3n2C2(C)COC2)c(F)c(O)c1O
2. COc1cc(-c2nc3nc(N4CCC4)ccc3n2C2CCOC2)cc(O)c1O (stereo not shown)
3. COc1cc(-c2nc3cc(N4CC5(CN(C)C5)C4)ccc3[nH]2)cc(O)c1O
4. COc1cc(-c2nc3cnccc3n2C2(C)COC2)c(F)c(O)c1O
5. COc1cc(-c2nc3ncccc3n2C2COC2)cc(O)c1O
6. CNC(=O)c1ccc2nc(-c3cc(OC)c(O)c(O)c3F)n(C3(C)COC3)c2c1
7. COc1cc(-c2nc3ccccc3n2C2COC2)cc(C(=O)O)c1O

Reply text:
≤ 0.1 µM
10 to 100 µM
> 100 µM
1 to 10 µM
> 100 µM
≤ 0.1 µM
> 100 µM

----------
- target entity: Human TREX1 enzyme (amino acids 1-242) (Homo sapiens, UniProt Q9NSU2)
- Construct: Human TREX1 enzyme (amino acids 1-242)
- Sequence (Q9NSU2 1-242): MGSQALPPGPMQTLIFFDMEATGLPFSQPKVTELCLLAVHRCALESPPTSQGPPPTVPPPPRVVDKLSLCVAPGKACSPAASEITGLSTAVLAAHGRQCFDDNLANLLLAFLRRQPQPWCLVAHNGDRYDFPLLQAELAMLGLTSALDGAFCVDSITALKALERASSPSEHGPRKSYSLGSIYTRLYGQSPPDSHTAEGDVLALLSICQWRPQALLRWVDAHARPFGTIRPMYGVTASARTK
- measurement notes: Human TREX1 enzymatic assay with dsDNA native oligonucleotide (Picogreen fluorescence)
- Assay type: biochemical
- test settings: 2 mM dithiothreitol in assay buffer; 50 nM dsDNA oligonucleotide; 30 min preincubation at 25° C.; read-out: TREX1/Human + DTT IC50 AVG
recorded endpoint: IC50

Study these solved cases before continuing.
{"compound": "COc1cc(-c2nc3ccccc3n2CC2CCC2)c(C)c(O)c1O [Example 239]", "IC50": "> 100 µM"}
{"compound": "COCCn1c(-c2cc(OC)c(O)c(O)c2C)nc2ccccc21 [Example 172]", "IC50": "> 100 µM"}
{"compound": "COc1cc(-c2nc3ccccc3n2C23CC(C2)C3)c(F)c(O)c1O [Example 328]", "IC50": "≤ 0.1 µM"}
{"compound": "COc1cc(-c2nc3cc(N4CCN(c5ccccn5)CC4)ccc3[nH]2)cc(O)c1O [Example 73]", "IC50": "> 100 µM"}

For each of the compounds below, note its IC50.
1. COc1cc(-c2nc3ccccc3n2C2CC2)c(C)c(O)c1O [Example 324]
2. COc1cc(-c2nc3cc(-c4ccccc4)ccc3[nH]2)cc(O)c1O [Example 69]

Reply text:
1. 1 to 10 µM
2. > 100 µM

For each of the compounds below, note its IC50.
1. COc1cc(-c2nc3cc(N4CC(OC)C4)ccc3[nH]2)cc(O)c1O [Example 144]
2. COc1cc(-c2nc3ccccc3n2C2COC2)cc(O)c1O [Example 11]
3. COc1cc(-c2nc3cc(N4CCOCC4)cnc3[nH]2)cc(O)c1O [Example 70]

Reply text:
1. 10 to 100 µM
2. 10 to 100 µM
3. > 100 µM
